System: Escherichia coli NBIMCC 8785
Format: cell-based
Details: peptide 1.4 mg/mL, 20 µL per disc, 24 h
Non-standard residues stand in square brackets, D forms with d. Residues, ends and D or L forms follow the SMILES beside them. Orn = NCCC[C@H](N)C(=O)O; Dap = NC[C@H](N)C(=O)O
observed property: Inhibition zone, E. coli 8785 (mm)
Output spec: scalar in mm, unitless text.

Value lookup for Inhibition zone, E. coli 8785; key = CC[C@H](C)[C@H](NC(=O)CNC(=O)[C@H](CO)NC(=O)[C@H](CC(C)C)NC(=O)[C@@H](NC(=O)[C@H](CN)NC(=O)CNC(=O)[C@@H](NC(=O)[C@H](CC(C)C)NC(=O)[C@@H]1CCCN1C(=O)[C@H](CC(C)C)NC(=O)[C@@H](N)Cc1ccccc1)[C@@H](C)CC)C(C)C)C(=O)N[C@@H](CC(C)C)C(N)=O [DTDap, FLPLIG-Dap-VLSGIL-NH2] (H-FLPLIG[Dap]VLSGIL-NH2; N-terminus assumed)
0.0

Query (compound): CC[C@H](C)[C@H](NC(=O)CNC(=O)[C@H](CO)NC(=O)[C@H](CC(C)C)NC(=O)[C@@H](NC(=O)[C@H](CCCN)NC(=O)CNC(=O)[C@@H](NC(=O)[C@H](CC(C)C)NC(=O)[C@@H]1CCCN1C(=O)[C@H](CC(C)C)NC(=O)[C@@H](N)Cc1ccccc1)[C@@H](C)CC)C(C)C)C(=O)N[C@@H](CC(C)C)C(N)=O [DTOrn, FLPLIG-Orn-VLSGIL-NH2] (H-FLPLIG[Orn]VLSGIL-NH2; N-terminus assumed) ; field requested: Inhibition zone, E. coli 8785
0.0

====

Assay: 3T3 NRU cytotoxicity/phototoxicity test
Type: cell-based, mouse
Settings: mouse
Residues, ends and D or L forms follow the SMILES beside them.
observed property: CC50 (µM)
# value in µM; strip the unit string

Query: CC50; subject: CC[C@H](C)[C@H](NC(=O)CNC(=O)[C@H](CO)NC(=O)[C@H](CC(C)C)NC(=O)[C@@H](NC(=O)[C@H](CCCNC(=N)N)NC(=O)CNC(=O)[C@@H](NC(=O)[C@H](CC(C)C)NC(=O)[C@@H]1CCCN1C(=O)[C@H](CC(C)C)NC(=O)[C@@H](N)Cc1ccccc1)[C@@H](C)CC)C(C)C)C(=O)N[C@@H](CC(C)C)C(N)=O [DTA, FLPLIG-R-VLSGIL-NH2, reference compound] (H-FLPLIGRVLSGIL-NH2)
106

====

Assay: 3T3 NRU cytotoxicity/phototoxicity test
Assay type: cell-based, mouse
Conditions: mouse; phototoxicity, irradiated 2.4 J/cm^2, BALB 3T3 clone A31, Neutral Red uptake; read-out: Mean CC50 ± SD, +Irr
Non-standard residues stand in square brackets, D forms with d. Residues, ends and D or L forms follow the SMILES beside them. Cit = NC(=O)NCCC[C@H](N)C(=O)O; Orn = NCCC[C@H](N)C(=O)O; Dap = NC[C@H](N)C(=O)O
For each entry below, report its CC50 at 24 h value.
Dear colleague, please return just the value in µM, with no unit written.

For CC[C@H](C)[C@H](NC(=O)CNC(=O)[C@H](CO)NC(=O)[C@H](CC(C)C)NC(=O)[C@@H](NC(=O)[C@H](CN)NC(=O)CNC(=O)[C@@H](NC(=O)[C@H](CC(C)C)NC(=O)[C@@H]1CCCN1C(=O)[C@H](CC(C)C)NC(=O)[C@@H](N)Cc1ccccc1)[C@@H](C)CC)C(C)C)C(=O)N[C@@H](CC(C)C)C(N)=O [DTDap, FLPLIG-Dap-VLSGIL-NH2] (H-FLPLIG[Dap]VLSGIL-NH2; N-terminus assumed) , what is its reported CC50 at 24 h?
933

Sample CC[C@H](C)[C@H](NC(=O)CNC(=O)[C@H](CO)NC(=O)[C@H](CC(C)C)NC(=O)[C@@H](NC(=O)[C@H](CCCN)NC(=O)CNC(=O)[C@@H](NC(=O)[C@H](CC(C)C)NC(=O)[C@@H]1CCCN1C(=O)[C@H](CC(C)C)NC(=O)[C@@H](N)Cc1ccccc1)[C@@H](C)CC)C(C)C)C(=O)N[C@@H](CC(C)C)C(N)=O [DTOrn, FLPLIG-Orn-VLSGIL-NH2] (H-FLPLIG[Orn]VLSGIL-NH2; N-terminus assumed) — what was its CC50 at 24 h?
345

For the compound shown here, CC[C@H](C)[C@H](NC(=O)CNC(=O)[C@H](CO)NC(=O)[C@H](CC(C)C)NC(=O)[C@@H](NC(=O)[C@H](CCCNC(N)=O)NC(=O)CNC(=O)[C@@H](NC(=O)[C@H](CC(C)C)NC(=O)[C@@H]1CCCN1C(=O)[C@H](CC(C)C)NC(=O)[C@@H](N)Cc1ccccc1)[C@@H](C)CC)C(C)C)C(=O)N[C@@H](CC(C)C)C(N)=O [DTCit, FLPLIG-Cit-VLSGIL-NH2] (H-FLPLIG[Cit]VLSGIL-NH2; N-terminus assumed) , give the reported CC50 at 24 h.
332

====

For each record, write down the corresponding Inhibition zone, P. aeruginosa 3700.
Test system: Pseudomonas aeruginosa NBIMCC 3700
Assay type: cell-based
Details: peptide 1.4 mg/mL, 20 µL per disc, 24 h
Non-standard residues stand in square brackets, D forms with d. Residues, ends and D or L forms follow the SMILES beside them. Dab = NCC[C@H](N)C(=O)O
Report the value in mm with no unit label.

For CC[C@H](C)[C@H](NC(=O)CNC(=O)[C@H](CO)NC(=O)[C@H](CC(C)C)NC(=O)[C@@H](NC(=O)[C@H](CCCCN)NC(=O)CNC(=O)[C@@H](NC(=O)[C@H](CC(C)C)NC(=O)[C@@H]1CCCN1C(=O)[C@H](CC(C)C)NC(=O)[C@@H](N)Cc1ccccc1)[C@@H](C)CC)C(C)C)C(=O)N[C@@H](CC(C)C)C(N)=O [DTF, FLPLIG-K-VLSGIL-NH2, reference compound] (H-FLPLIGKVLSGIL-NH2) , what is its reported Inhibition zone, P. aeruginosa 3700?
7.0

Given the compound CC[C@H](C)[C@H](NC(=O)CNC(=O)[C@H](CO)NC(=O)[C@H](CC(C)C)NC(=O)[C@@H](NC(=O)[C@H](CCN)NC(=O)CNC(=O)[C@@H](NC(=O)[C@H](CC(C)C)NC(=O)[C@@H]1CCCN1C(=O)[C@H](CC(C)C)NC(=O)[C@@H](N)Cc1ccccc1)[C@@H](C)CC)C(C)C)C(=O)N[C@@H](CC(C)C)C(N)=O [DTDab, FLPLIG-Dab-VLSGIL-NH2] (H-FLPLIG[Dab]VLSGIL-NH2; N-terminus assumed) , what is its reported Inhibition zone, P. aeruginosa 3700?
7.7

====

Test system: Escherichia coli NBIMCC 8785
Type: cell-based
Conditions: peptide 1.4 mg/mL, 20 µL per disc, 24 h
Non-standard residues stand in square brackets, D forms with d. Residues, ends and D or L forms follow the SMILES beside them. Cit = NC(=O)NCCC[C@H](N)C(=O)O; Dab = NCC[C@H](N)C(=O)O
observed property: Inhibition zone, E. coli 8785 (mm)
Express the result in mm but write the number alone.

Which Inhibition zone, E. coli 8785 is reported for this compound? CC[C@H](C)[C@H](NC(=O)CNC(=O)[C@H](CO)NC(=O)[C@H](CC(C)C)NC(=O)[C@@H](NC(=O)[C@H](CCCCN)NC(=O)CNC(=O)[C@@H](NC(=O)[C@H](CC(C)C)NC(=O)[C@@H]1CCCN1C(=O)[C@H](CC(C)C)NC(=O)[C@@H](N)Cc1ccccc1)[C@@H](C)CC)C(C)C)C(=O)N[C@@H](CC(C)C)C(N)=O [DTF, FLPLIG-K-VLSGIL-NH2, reference compound] (H-FLPLIGKVLSGIL-NH2)
0.0

# get_value(readout='Inhibition zone, E. coli 8785', item= CC[C@H](C)[C@H](NC(=O)CNC(=O)[C@H](CO)NC(=O)[C@H](CC(C)C)NC(=O)[C@@H](NC(=O)[C@H](CCN)NC(=O)CNC(=O)[C@@H](NC(=O)[C@H](CC(C)C)NC(=O)[C@@H]1CCCN1C(=O)[C@H](CC(C)C)NC(=O)[C@@H](N)Cc1ccccc1)[C@@H](C)CC)C(C)C)C(=O)N[C@@H](CC(C)C)C(N)=O [DTDab, FLPLIG-Dab-VLSGIL-NH2] (H-FLPLIG[Dab]VLSGIL-NH2; N-terminus assumed) )
0.0

Recorded Inhibition zone, E. coli 8785 of CC[C@H](C)[C@H](NC(=O)CNC(=O)[C@H](CO)NC(=O)[C@H](CC(C)C)NC(=O)[C@@H](NC(=O)[C@H](CCCNC(N)=O)NC(=O)CNC(=O)[C@@H](NC(=O)[C@H](CC(C)C)NC(=O)[C@@H]1CCCN1C(=O)[C@H](CC(C)C)NC(=O)[C@@H](N)Cc1ccccc1)[C@@H](C)CC)C(C)C)C(=O)N[C@@H](CC(C)C)C(N)=O [DTCit, FLPLIG-Cit-VLSGIL-NH2] (H-FLPLIG[Cit]VLSGIL-NH2; N-terminus assumed) , please.
0.0
